Target: adenylyl cyclase, Type I, purified recombinant (Bos taurus, UniProt P19754)
Sequence (P19754 whole entry): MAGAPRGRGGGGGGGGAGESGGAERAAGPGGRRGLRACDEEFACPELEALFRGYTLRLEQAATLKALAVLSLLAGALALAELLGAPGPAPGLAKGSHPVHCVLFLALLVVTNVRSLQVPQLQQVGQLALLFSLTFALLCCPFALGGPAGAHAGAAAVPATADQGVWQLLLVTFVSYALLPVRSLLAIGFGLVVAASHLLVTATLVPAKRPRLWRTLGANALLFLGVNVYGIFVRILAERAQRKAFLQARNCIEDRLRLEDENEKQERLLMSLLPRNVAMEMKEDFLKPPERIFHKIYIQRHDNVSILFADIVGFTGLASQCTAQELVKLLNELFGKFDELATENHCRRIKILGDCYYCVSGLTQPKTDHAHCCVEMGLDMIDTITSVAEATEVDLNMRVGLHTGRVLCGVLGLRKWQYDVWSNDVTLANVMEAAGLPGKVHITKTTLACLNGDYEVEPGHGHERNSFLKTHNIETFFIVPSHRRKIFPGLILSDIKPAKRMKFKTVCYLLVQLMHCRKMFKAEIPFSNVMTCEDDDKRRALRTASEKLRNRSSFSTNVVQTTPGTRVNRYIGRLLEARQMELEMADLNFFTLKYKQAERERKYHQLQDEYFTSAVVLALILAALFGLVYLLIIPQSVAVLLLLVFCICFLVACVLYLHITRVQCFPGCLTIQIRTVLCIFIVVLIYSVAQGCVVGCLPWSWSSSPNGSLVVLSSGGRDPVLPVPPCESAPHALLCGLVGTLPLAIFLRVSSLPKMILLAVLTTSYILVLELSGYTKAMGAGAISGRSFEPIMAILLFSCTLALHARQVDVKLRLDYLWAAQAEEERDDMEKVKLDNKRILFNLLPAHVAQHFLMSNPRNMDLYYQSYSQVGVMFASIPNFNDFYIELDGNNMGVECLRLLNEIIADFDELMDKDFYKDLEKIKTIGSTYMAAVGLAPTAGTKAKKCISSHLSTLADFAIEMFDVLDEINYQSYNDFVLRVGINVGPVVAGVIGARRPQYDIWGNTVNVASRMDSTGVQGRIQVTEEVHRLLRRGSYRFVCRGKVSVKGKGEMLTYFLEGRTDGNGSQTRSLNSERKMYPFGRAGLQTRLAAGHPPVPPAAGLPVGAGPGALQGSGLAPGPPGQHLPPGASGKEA
Test: Inhibition of purified recombinant Type I adenylyl cyclase (Table II)
Assay type: biochemical
Details: forskolin eluate
measuredProperty: pIC50
Formally, pIC50 is defined as -log10 of the concentration c, with c in mol/L.

INSERT INTO assay_data (molecule, quantitativeresult) VALUES
  ('C[C@H]1O[C@@H](n2cnc3c(N)ncnc32)C[C@@H]1OP(=O)(O)O', 5.70),
  ('C[C@H]1O[C@@H](n2cnc3c(N)ncnc32)C[C@@H]1OP(=O)(O)OP(=O)(O)O [Compound 3, 2'', 5''-dideoxyadenosine-3''-diphosphate]', 6.60);

Shifting focus to the molecule that follows.
Assay adenylyl cyclase, Type I, purified recombinant (Bos taurus, UniProt P19754), sample C[C@H]1O[C@@H](n2cnc3c(N)ncnc32)C[C@@H]1OP(=O)(O)OP(=O)(O)OP(=O)(O)O [Compound 4, 2', 5'-dideoxyadenosine-3'-triphosphate] , pIC50 read: 6.77

###

Below, each of the compounds is paired with its reported pIC50 value.
Target: rat brain adenylyl cyclase
Test: Inhibition of detergent-dispersed rat brain adenylyl cyclase (Table I)
Assay type: biochemical
Conditions: Table II; rat brain, detergent extract; values from Table I; read-out: IC50, rat brain detergent extract
Formally, pIC50 is defined as -log10 of the concentration c, with c in mol/L.

Examples with answers:
INSERT INTO assay_data (compound, quantitativeresult) VALUES
  ('C[C@H]1O[C@@H](n2cnc3c(N)ncnc32)C[C@@H]1OP(=O)(O)OP(=O)(O)O [Compound 3, 2'', 5''-dideoxyadenosine-3''-diphosphate]', 7.00),
  ('C[C@H]1O[C@@H](n2cnc3c(N)ncnc32)C[C@@H]1OP(=O)(O)OP(=O)(O)OP(=O)(O)O [Compound 4, 2'', 5''-dideoxyadenosine-3''-triphosphate]', 7.40);

Shifting focus to the compound that follows.
# compound C[C@H]1O[C@@H](n2cnc3c(N)ncnc32)C[C@@H]1OP(=O)(O)O [2'5'dd3'AMP] ; its pIC50 = 6.34

###

Target: adenylyl cyclase, bovine brain, purified
Assay: Inhibition of purified bovine brain adenylyl cyclase (Table II)
Conditions: forskolin eluates from forskolin affinity column
measuredProperty: pIC50
Formally, pIC50 is defined as -log10 of the concentration c, with c in mol/L.

INSERT INTO results (compound, measuredproperty, quantitativeresult) VALUES
  ('C[C@H]1O[C@@H](n2cnc3c(N)ncnc32)C[C@@H]1OP(=O)(O)OP(=O)(O)O [Compound 3, 2'', 5''-dideoxyadenosine-3''-diphosphate]', 'pIC50', 6.25);

Shifting focus to the compound that follows.
# compound C[C@H]1O[C@@H](n2cnc3c(N)ncnc32)C[C@@H]1OP(=O)(O)OP(=O)(O)OP(=O)(O)O [Compound 4, 2', 5'-dideoxyadenosine-3'-triphosphate] ; its pIC50 = 6.92

###

Molecular target: rat brain adenylyl cyclase
Test: Inhibition of detergent-dispersed rat brain adenylyl cyclase (Table I)
Type: biochemical
Details: Table I; 5 mM MnCl2, 100 μM 5'ATP, 100 μM forskolin, pH 7.5, 15 min at 30° C.; read-out: IC50 for inhibition of rat brain adenylyl cyclase
measuredProperty: pIC50
Formally, pIC50 is defined as -log10 of the concentration c, with c in mol/L.

Examples with answers:
INSERT INTO results (compound, quantitativeresult) VALUES
  ('Nc1ncnc2c1ncn2[C@H]1C[C@H](OP(=O)(O)OP(=O)(O)O)[C@@H](CO)O1 [Compound 11, 2''-deoxyadenosine-3''-diphosphate]', 6.85),
  ('C[C@H]1O[C@@H](n2cnc3c(N)ncnc32)C[C@@H]1OP(=O)(O)OCCN(C)S(=O)(=O)c1cccc2c(N(C)C)cccc12 [Compound 1]', 5.52);

Shifting focus to the compound that follows.
# compound Nc1ncnc2c1ncn2[C@H]1C[C@H](OP(=O)(O)OP(=O)(O)OP(=O)(O)O)[C@@H](CO)O1 [Compound 12, 2'-deoxyadenosine-3'-triphosphate] ; its pIC50 = 7.05
